measured.target: FGFR3 (UniProt P22607)
Sequence (P22607 whole entry, looked up): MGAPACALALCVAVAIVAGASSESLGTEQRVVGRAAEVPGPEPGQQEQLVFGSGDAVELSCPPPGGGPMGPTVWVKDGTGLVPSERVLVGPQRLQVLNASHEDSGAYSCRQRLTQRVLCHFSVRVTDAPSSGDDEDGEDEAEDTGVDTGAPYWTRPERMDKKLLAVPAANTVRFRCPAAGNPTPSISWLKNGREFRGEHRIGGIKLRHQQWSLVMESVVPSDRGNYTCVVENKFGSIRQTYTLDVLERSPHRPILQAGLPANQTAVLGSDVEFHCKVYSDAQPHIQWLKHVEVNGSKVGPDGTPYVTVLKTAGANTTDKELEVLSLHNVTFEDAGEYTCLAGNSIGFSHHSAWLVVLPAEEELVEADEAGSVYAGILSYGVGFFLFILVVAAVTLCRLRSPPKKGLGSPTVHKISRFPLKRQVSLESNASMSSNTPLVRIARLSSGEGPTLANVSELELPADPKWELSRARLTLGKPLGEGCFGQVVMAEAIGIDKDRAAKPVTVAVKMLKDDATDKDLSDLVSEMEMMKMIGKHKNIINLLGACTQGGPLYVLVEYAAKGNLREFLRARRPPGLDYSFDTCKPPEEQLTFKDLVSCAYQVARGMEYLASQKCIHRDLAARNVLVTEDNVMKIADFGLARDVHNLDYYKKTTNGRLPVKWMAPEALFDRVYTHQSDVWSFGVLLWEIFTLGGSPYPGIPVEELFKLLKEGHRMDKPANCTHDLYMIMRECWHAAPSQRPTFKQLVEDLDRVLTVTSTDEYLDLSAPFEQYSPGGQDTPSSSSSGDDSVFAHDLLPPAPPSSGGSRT
procedure.summary: phosphorylation enrichment, bacterial display (enrichment ratio); higher = better substrate or ligand; peptides without Tyr show the background;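 further: 11-residue human phosphosite peptides and single-mutation variants displayed on the E. coli surface, counted by deep sequencing, each peptide's frequency after selection divided by its frequency in the unselected input library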;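 further: frequency after pTyr selection over input frequency; kinase dosed for 20-30% of maximal phosphorylation in three min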
readout.kind: phosphorylation enrichment

{"chain.sequence": "SLNEEYTKNKT [MSH2_Y563]", "measured.target": "FGFR3 (UniProt P22607)", "readout.kind": "phosphorylation enrichment", "experimental.value": 0.397}
{"chain.sequence": "GADAIYDHVNE [UQCR10_Y44_I47V]", "measured.target": "FGFR3 (UniProt P22607)", "readout.kind": "phosphorylation enrichment", "experimental.value": 0.62}
{"chain.sequence": "EDSEYYRAFEE [CASQ2_Y179_K180R]", "measured.target": "FGFR3 (UniProt P22607)", "readout.kind": "phosphorylation enrichment", "experimental.value": 1.26}
{"chain.sequence": "YQGGTYSKAST [FGG_Y380]", "measured.target": "FGFR3 (UniProt P22607)", "readout.kind": "phosphorylation enrichment", "experimental.value": 0.43}
{"chain.sequence": "CDIPRYIVSQL [MAST2_Y461]", "measured.target": "FGFR3 (UniProt P22607)", "readout.kind": "phosphorylation enrichment", "experimental.value": 0.618}
{"chain.sequence": "SDVLSYGVTMW [ZAP70_Y525_W523L]", "measured.target": "FGFR3 (UniProt P22607)", "readout.kind": "phosphorylation enrichment", "experimental.value": 0.642}
{"chain.sequence": "SENPKYPEVGD [TMEM43_Y233]", "measured.target": "FGFR3 (UniProt P22607)", "readout.kind": "phosphorylation enrichment", "experimental.value": 0.734}
{"chain.sequence": "QKPLDYFRVNL [GALE_Y104_YF]", "measured.target": "FGFR3 (UniProt P22607)", "readout.kind": "phosphorylation enrichment", "experimental.value": 4.41}
{"chain.sequence": "SVVAPYEPPEV [TP53_Y220_V218A]", "measured.target": "FGFR3 (UniProt P22607)", "readout.kind": "phosphorylation enrichment", "experimental.value": 0.753}
{"chain.sequence": "SRDPFYEMLAA [CYTH1_Y382]", "measured.target": "FGFR3 (UniProt P22607)", "readout.kind": "phosphorylation enrichment", "experimental.value": 3.2}
{"chain.sequence": "NKYTTYLPRLP [C9orf24_Y126]", "measured.target": "FGFR3 (UniProt P22607)", "readout.kind": "phosphorylation enrichment", "experimental.value": 0.418}
{"chain.sequence": "HITQVYGFYDE [PPP2CA_Y127_Q122H]", "measured.target": "FGFR3 (UniProt P22607)", "readout.kind": "phosphorylation enrichment", "experimental.value": 1.26}
{"chain.sequence": "YYSSEYHCVGG [CTSC_Y345_Y347C]", "measured.target": "FGFR3 (UniProt P22607)", "readout.kind": "phosphorylation enrichment", "experimental.value": 9.28}
{"chain.sequence": "RHPEVYHHLGI [NVL_Y290_V295I]", "measured.target": "FGFR3 (UniProt P22607)", "readout.kind": "phosphorylation enrichment", "experimental.value": 0.999}
{"chain.sequence": "AVLSLCASGRT [ACTA2_Y145_Y145C]", "measured.target": "FGFR3 (UniProt P22607)", "readout.kind": "phosphorylation enrichment", "experimental.value": 0.592}
{"chain.sequence": "ADSLRYIYPKL [EIF2B3_Y92]", "measured.target": "FGFR3 (UniProt P22607)", "readout.kind": "phosphorylation enrichment", "experimental.value": 0.463}
{"chain.sequence": "KPGVNYFFQVS", "measured.target": "FGFR3 (UniProt P22607)", "readout.kind": "phosphorylation enrichment", "experimental.value": 1.09}
{"chain.sequence": "SSSGGYGGGFG [KRT19_Y61_A60G_YF]", "measured.target": "FGFR3 (UniProt P22607)", "readout.kind": "phosphorylation enrichment", "experimental.value": 0.477}
{"chain.sequence": "GMSQAYSFSQR [DES_Y5_S7F]", "measured.target": "FGFR3 (UniProt P22607)", "readout.kind": "phosphorylation enrichment", "experimental.value": 0.481}
{"chain.sequence": "RKTAKYLLKGE [CDH5_Y82_N79T]", "measured.target": "FGFR3 (UniProt P22607)", "readout.kind": "phosphorylation enrichment", "experimental.value": 0.704}
{"chain.sequence": "QLAPQYTFAQG [FLNA_Y1761_YF]", "measured.target": "FGFR3 (UniProt P22607)", "readout.kind": "phosphorylation enrichment", "experimental.value": 0.42}
{"chain.sequence": "FDAHNYHPLPV [OAT_Y55_G51D_YF]", "measured.target": "FGFR3 (UniProt P22607)", "readout.kind": "phosphorylation enrichment", "experimental.value": 5.97}
{"chain.sequence": "KINKMYSDRAM", "measured.target": "FGFR3 (UniProt P22607)", "readout.kind": "phosphorylation enrichment", "experimental.value": 0.371}
{"chain.sequence": "KDYETYQPFQN [CTNND2_Y1157]", "measured.target": "FGFR3 (UniProt P22607)", "readout.kind": "phosphorylation enrichment", "experimental.value": 0.801}
{"chain.sequence": "PVEAAYQKVVA [HBB_Y131_Q128E]", "measured.target": "FGFR3 (UniProt P22607)", "readout.kind": "phosphorylation enrichment", "experimental.value": 0.617}
{"chain.sequence": "PIDLYYLMDLS [ITGB2_Y131]", "measured.target": "FGFR3 (UniProt P22607)", "readout.kind": "phosphorylation enrichment", "experimental.value": 18.6}
{"chain.sequence": "KFDLMYAKCAF [TUBA1A_Y399_R402C]", "measured.target": "FGFR3 (UniProt P22607)", "readout.kind": "phosphorylation enrichment", "experimental.value": 0.841}
{"chain.sequence": "EGQKIYIDDNN [PIP4K2A_Y246]", "measured.target": "FGFR3 (UniProt P22607)", "readout.kind": "phosphorylation enrichment", "experimental.value": 0.667}
{"chain.sequence": "ISRASYYRKGG [ALK_Y1282_Y1278S]", "measured.target": "FGFR3 (UniProt P22607)", "readout.kind": "phosphorylation enrichment", "experimental.value": 0.532}
{"chain.sequence": "QRRNVYFFSFL [PTEN_Y176_Y174N_YF]", "measured.target": "FGFR3 (UniProt P22607)", "readout.kind": "phosphorylation enrichment", "experimental.value": 0.728}

The measurements presented in this section are drawn from the supplement of paper PMC10065799.
